Tested on: Plasmodium falciparum
Assay details: NOVARTIS: Inhibition of Plasmodium falciparum 3D7 (drug-susceptible) proliferation in erythrocyte-based infection assay
Assay type: functional, organism-based
Condition: Plasmodium falciparum, 3D7
Reported EC50 is given for each of the following compounds.

- Compound: "CCC(c1nc2cc(Cl)ccc2c(=O)n1CC)N(CC)C(=O)c1ccc2ccccc2c1 (configuration not stated)"
  EC50: "> 1220 nM"
- Compound: "CC1=C(C(=O)Nc2ccccn2)C(c2ccc(O)cc2)n2ncnc2N1 (configuration not stated)"
  EC50: "> 1250 nM"
- Compound: "OC(CN1CCOCC1)Cn1cnc2c(SCc3ccccc3)ncnc21 (configuration not stated)"
  EC50: "> 12500 nM"
- Compound: "CC(C)n1nnnc1CN1CCN(c2ccccc2F)CC1"
  EC50: "> 1480 nM"
- Compound: "O=C(O)c1ccc([C@@H]2Nc3c(ccc4ccccc34)[C@@H]3C=CC[C@@H]32)cc1"
  EC50: "> 1250 nM"
- Compound: "O=C(Cn1c2ccccc2c(=O)c2cc([N+](=O)[O-])ccc21)Nc1ccc(F)c(Cl)c1"
  EC50: "> 12500 nM"
- Compound: "O=C(NC(=S)Nc1ccc([N+](=O)[O-])cc1Cl)c1ccco1"
  EC50: "> 1530 nM"

###

Reported EC50 is given for each of the following molecules.
Test system: Plasmodium falciparum
Assay details: NOVARTIS: Inhibition of Plasmodium falciparum 3D7 (drug-susceptible) proliferation in erythrocyte-based infection assay
Type: functional, organism-based
Condition: Plasmodium falciparum, 3D7

- Molecule: "O=C(Nc1ccccc1[N+](=O)[O-])C1CC1(c1ccccc1)c1ccccc1 (stereo not given)"
  EC50: "> 12500 nM"
- Molecule: "COC(=O)c1ccnn(-c2ccccc2)c1=O"
  EC50: "> 1690 nM"
- Molecule: "Cc1ccc(-c2nc3cc(NC(=O)c4ccc(Cl)cc4Cl)ccc3o2)cc1"
  EC50: "> 864 nM"
- Molecule: "CCN1/C(=C/C(=C/c2sc3ccccc3[n+]2CC)NC)Sc2ccccc21"
  EC50: "> 1250 nM"
- Molecule: "Clc1ccc(Nc2nc3nonc3nc2Nc2ccc(Cl)c(Cl)c2)cc1Cl"
  EC50: "> 12500 nM"

###

Test system: Plasmodium falciparum
Assay details: NOVARTIS: Inhibition of Plasmodium falciparum W2 (drug-resistant) proliferation in erythrocyte-based infection assay
Assay type: functional, organism-based
Condition: Plasmodium falciparum, W2; read-out: EC50
Observable: EC50 (nM)

- Compound: "CCOC(=O)C1=C(C)N=c2sc(=Cc3cccc(OCc4cccc5ccccc45)c3)c(=O)n2C1c1ccc(OC)cc1OC (centres undefined)"
  Unit info: "nM"
  Result operator: ">"
  Value measured: 9270
- Compound: "OC(COc1ccccc1CNCCN1CCCC1)CN1CCc2ccccc2C1 (centres undefined)"
  Unit info: "nM"
  Result operator: "="
  Value measured: 1660
- Compound: "COc1ccc(C(C)=NNc2nnc(C)c(O)n2)cc1"
  Unit info: "nM"
  Result operator: "="
  Value measured: 258
- Compound: "Cc1cccc(Nc2nc3nonc3[nH]c2=NN=Cc2cccs2)c1C"
  Unit info: "nM"
  Result operator: "="
  Value measured: 4300
- Compound: "O=C1NN=C2C1=NC1(CCCCC1)Cc1ccccc12"
  Unit info: "nM"
  Result operator: "="
  Value measured: 376
- Compound: "COCCOC(=O)C1=C(C)NC2=C(C(=O)CC(c3ccc(OC)c(OC)c3)C2)C1c1ccccc1F (centres undefined)"
  Unit info: "nM"
  Result operator: "="
  Value measured: 11.8
- Compound: "CCCCCN(C(=O)c1ccc(C)cc1)C(CC)c1nc2ccccc2c(=O)n1-c1ccccc1OC (centres undefined)"
  Unit info: "nM"
  Result operator: "="
  Value measured: 1070
- Compound: "COc1ccc(C2CC(=O)C3=C(C2)NC(C)=C(C(=O)OC(C)C)C3c2cccc(Cl)c2Cl)cc1OC (centres undefined)"
  Unit info: "nM"
  Result operator: "="
  Value measured: 18.1
- Compound: "CCCn1c(C(CC)N2CCNCC2)nc2ccccc2c1=O (centres undefined)"
  Unit info: "nM"
  Result operator: "="
  Value measured: 637
- Compound: "CCN(CC)c1ccc2c(c1)OC(N)=C(C#N)C2c1ccsc1 (centres undefined)"
  Unit info: "nM"
  Result operator: ">"
  Value measured: 12500
- Compound: "COc1ccc(C2=C(c3ccc(OC)cc3)C3(c4ccccc4)C(=O)C2(c2ccccc2)C2C(=O)N(c4cc(Cl)ccc4C)C(=O)C23)cc1 (centres undefined)"
  Unit info: "nM"
  Result operator: "="
  Value measured: 346
- Compound: "CN(C)[C@@H]1CCN(Cc2cccc(Cl)c2)C[C@@H]1CCC(=O)NCCCN1CCOCC1"
  Unit info: "nM"
  Result operator: "<"
  Value measured: 15.4
- Compound: "COc1cnc(-c2ccccn2)nc1NC(C)C"
  Unit info: "nM"
  Result operator: "="
  Value measured: 1100
- Compound: "CCC(CC)=NNC(=O)C(=O)NC1CCCCC1"
  Unit info: "nM"
  Result operator: "="
  Value measured: 535
- Compound: "CCc1ccccc1N=C1c2c(cccc2[N+](=O)[O-])C(=O)C1C(C)=O (centres undefined)"
  Unit info: "nM"
  Result operator: "="
  Value measured: 15.4
- Compound: "OC(CNc1cccc2ccccc12)Cn1c2ccccc2c2ccccc21 (centres undefined)"
  Unit info: "nM"
  Result operator: "="
  Value measured: 883
- Compound: "Cc1nc(N(C)c2ccc(C(C)C)cc2)c2c(C)c(C(=O)Nc3cc(C)on3)sc2n1"
  Unit info: "nM"
  Result operator: "="
  Value measured: 236
- Compound: "O=C(NCC1(c2ccccc2)CCCC1)C(=O)Nc1nncs1"
  Unit info: "nM"
  Result operator: ">"
  Value measured: 360
- Compound: "Cc1ccn2c(NC(C)(C)CC(C)(C)C)c(-c3ccccc3OC(=O)c3ccc4c(c3)OCO4)nc2c1"
  Unit info: "nM"
  Result operator: "="
  Value measured: 24.1

Source: ChEMBL document CHEMBL1156829
